Where these numbers come from: patent US20070042045A1

Assay: active ingredient delivery in PhEur phosphate buffer of pH 6.8 in a USP dissolution tester
Format: physicochemical
Conditions: versus pellets with microcrystalline cellulose (Example 5), EUDRAGIT RS coating, no matrix
Measurement Label: effect of the modulating substance in the core on active ingredient delivery

O=C(O)CC(O)(CC(=O)O)C(=O)O = accelerating effect
CC(=O)[O-].[Na+] [sodium acetate] = accelerating effect
O=C([O-])CCC(=O)[O-].[Na+].[Na+] [sodium succinate] = accelerating effect
